SYSTEM TESTED: T1, monkey C5-mmh (monkey, UniProt P01031 19-1676 (human entry), limits assumed)
T1 construct: Expressed with a C-terminal myc-myc-hexahistidine tag
T1 chain: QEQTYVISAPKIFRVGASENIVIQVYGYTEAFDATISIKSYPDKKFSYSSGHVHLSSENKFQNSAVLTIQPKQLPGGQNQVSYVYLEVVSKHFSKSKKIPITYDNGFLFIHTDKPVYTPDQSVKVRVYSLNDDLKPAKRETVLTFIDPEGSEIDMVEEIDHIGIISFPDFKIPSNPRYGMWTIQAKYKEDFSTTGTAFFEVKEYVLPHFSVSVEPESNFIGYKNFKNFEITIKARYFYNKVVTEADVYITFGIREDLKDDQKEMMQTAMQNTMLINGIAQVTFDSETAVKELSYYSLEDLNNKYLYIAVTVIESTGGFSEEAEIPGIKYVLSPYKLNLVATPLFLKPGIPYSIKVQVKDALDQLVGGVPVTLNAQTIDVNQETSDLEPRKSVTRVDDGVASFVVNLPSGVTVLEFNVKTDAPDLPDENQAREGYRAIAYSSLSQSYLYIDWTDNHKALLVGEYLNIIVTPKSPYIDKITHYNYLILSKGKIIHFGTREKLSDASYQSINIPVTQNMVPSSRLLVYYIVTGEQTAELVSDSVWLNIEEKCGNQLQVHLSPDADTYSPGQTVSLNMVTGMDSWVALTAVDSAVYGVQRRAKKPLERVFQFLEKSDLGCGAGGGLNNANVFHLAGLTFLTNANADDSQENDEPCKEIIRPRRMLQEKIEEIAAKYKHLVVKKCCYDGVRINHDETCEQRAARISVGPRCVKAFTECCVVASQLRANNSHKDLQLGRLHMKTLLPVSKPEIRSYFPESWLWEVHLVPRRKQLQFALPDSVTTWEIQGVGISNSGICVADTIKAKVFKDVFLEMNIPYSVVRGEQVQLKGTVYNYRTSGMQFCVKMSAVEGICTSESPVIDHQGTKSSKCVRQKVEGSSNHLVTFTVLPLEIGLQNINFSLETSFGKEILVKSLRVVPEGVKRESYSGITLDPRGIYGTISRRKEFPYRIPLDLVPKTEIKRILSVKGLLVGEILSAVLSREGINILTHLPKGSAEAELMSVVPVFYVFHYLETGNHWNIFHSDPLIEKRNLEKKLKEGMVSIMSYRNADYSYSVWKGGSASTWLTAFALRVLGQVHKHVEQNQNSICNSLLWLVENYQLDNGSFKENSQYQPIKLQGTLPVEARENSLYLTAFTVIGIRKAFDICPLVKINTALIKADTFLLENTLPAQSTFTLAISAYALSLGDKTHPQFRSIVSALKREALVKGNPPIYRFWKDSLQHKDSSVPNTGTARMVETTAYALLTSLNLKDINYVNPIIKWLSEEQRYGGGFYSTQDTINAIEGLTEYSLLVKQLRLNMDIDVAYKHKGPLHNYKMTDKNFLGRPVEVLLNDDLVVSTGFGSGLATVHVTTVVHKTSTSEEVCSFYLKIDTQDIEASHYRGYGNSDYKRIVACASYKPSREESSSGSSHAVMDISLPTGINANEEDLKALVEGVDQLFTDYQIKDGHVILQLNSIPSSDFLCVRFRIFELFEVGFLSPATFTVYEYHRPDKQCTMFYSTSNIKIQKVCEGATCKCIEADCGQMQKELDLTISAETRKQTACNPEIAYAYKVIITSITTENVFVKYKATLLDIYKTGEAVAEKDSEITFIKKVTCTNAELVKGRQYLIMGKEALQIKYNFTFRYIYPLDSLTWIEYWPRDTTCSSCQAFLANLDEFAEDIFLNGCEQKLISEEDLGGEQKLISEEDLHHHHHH
METHOD DESCRIPTION: SPR, mAb captured by anti-hFc, 25C

# BINDER, 100 nM monkey C5-mmh Bound (RU)
records = [
    ("H4H12159P (antibody, human IgG4, V domains shown) VH: QVQLVESGGGVVQPGRSLRLSCGASGFTFSTYGMHWVRQAPGKGLEWVAVIWDDGNNKYYADSVKGRFTISRDNSKNTLYLQMNSLRAEDTAVYYCARDSEVAPVGDYWGQGTLVTVSS VL: DIQMTQSPSTLSASVGDRVTIICRASQSINRWLAWYQQKPGKAPKLLIYKASSLESGVPSRFSGSGSGTEFTLTISSLQPDDFAAYYCQQYNDYSYTFGQGTKLEIK", 116),
    ("H4H12169P (antibody, human IgG4, V domains shown) VH: EVQLVESGGGLAQPGGSLRLSCAASGFTFRSYAMSWVRQAPGKGPEWVSGIGGNGVTTYYADSVKGRFTISRDNSKNTLFLQMNSLRAEDTAVYYCVQGGLGGYFTGYWGQGTLVTVSS VL: DIQMTQSPSSLSASVGDRVTITCRASQSISTYLNWYQQNPGKAPKLLIFDASSLQSGVPSRFSGSGSGTDFTLTIRGLQPEDFATYYCQQSYSAPLTFGGGTKVEIK", 22),
    ("H4H11683N (antibody, human IgG4, V domains shown, also called H2M11683N) VH: QVQLVESGGGVVQPGRSLRLSCVASGFTFSSYGIHWVRQAPGKGLEWVAVIWDDGNNINYSDSVKGRFIISRDNSRKTVYLQMNSLRGEDTAVYYCARDAPIAPVPDYWGQGTLVTVSS VL: DIQMTQSPSTLSASVGDRVTITCRASQSISSWLAWYQQKPGKAPKLLIYKASSLDTGVPSRFSGSGSGTEFTLTISSLQPDDFATYYCQQYNTYSYTFGLGTKLEIK", 403),
    ("H4H12161P (antibody, human IgG4, V domains shown) VH: EVQLVESGGDLVQPGGSLRLSCAASGFTFSDHYMDWVRQAPGKGLDWIGRIRNKANAYNTEYAASVRGRFTISRDDSQNLLYLQMNSLKTDDTAVYYCVRVWNYAYFAMDVWGQGTTVTVSS VL: DIQMTQSPSSLSASVGDRVTITCRSSQNIGIFLNWYQQKPGEAPNLLISAASSLHSGVPSRFSGSGSGTDFTLTIGSLQPEDFATYYCQQTYNTIFTFGPGTKVDIK", 45),
]
